Cited source for all entries: patent US6737383B1

Each entry below carries its reported Plant response rating, Wild oats.
System: wild oat
Test: Test B pre/postemergence wild oat
Format: in vivo, Avena fatua
Settings: Postemergence, Rate 62 g/ha; scale 0 to 10, 0 is no effect, 10 is complete control
Method: […] At the same time, these crop and weed species were also treated with postemergence applications of test chemicals formulated in the same manner. […] Treated plants and controls were maintained in a greenhouse for twelve to sixteen days, after which all species were compared to controls and visually evaluated. […]
Just the number.

Answered cases to consult:
CC(C)N(C(=O)n1oc(=O)n(CC(=O)C2CCC2)c1=O)c1ccccc1 = 0
CCOC(CC)n1c(=O)on(C(=O)N(c2ccc(Cl)cc2)C(C)C)c1=O (stereo not drawn) = 0

Proceed to the following item.
Item C#CC(C)n1c(=O)on(C(=O)N(c2ccc(F)cc2)C(C)C)c1=O (stereo not drawn) has what recorded Plant response rating, Wild oats? 0

---

test system: surinam grass; experiment: Test B pre/postemergence surinam grass; format: in vivo, Brachiaria decumbens; conditions: Preemergence, Rate 62 g/ha; scale 0 to 10 (0 no effect, 10 complete control)
recorded.endpoint: B. signalgrass plant response rating
Just the number.

CCOCn1c(=O)on(C(=O)N(c2ccccc2)C(C)C)c1=O = 3

Item "CC(C)=CCn1c(=O)on(C(=O)N(c2ccc(Cl)cc2)C(C)C)c1=O" has what recorded B. signalgrass plant response rating? 0

Item "Cc1ccccc1Cn1c(=O)on(C(=O)N(c2ccc(F)cc2)C(C)C)c1=O" has what recorded B. signalgrass plant response rating? 0

Item "Cc1nn(C)c(C)c1-n1c(=O)on(C(=O)N(c2ccccc2)C(C)C)c1=O" has what recorded B. signalgrass plant response rating? 0

Item "CCCn1c(=O)on(C(=O)N(c2ccc(Cl)cc2)C(C)C)c1=O" has what recorded B. signalgrass plant response rating? 5

Item "CCC(=O)Cn1c(=O)on(C(=O)N(c2ccc(Cl)cc2)C(C)C)c1=O" has what recorded B. signalgrass plant response rating? 6

---

tested on: surinam grass; assay: Test B pre/postemergence surinam grass; format: in vivo, Brachiaria decumbens; details: Postemergence, Rate 125 g/ha; scale 0 to 10, 0 is no effect, 10 is complete control
recorded.endpoint: Plant response rating, B. signalgrass
Just the number.

Answered cases to consult:
CC(C)N(C(=O)n1oc(=O)n(-c2ccc3ccccc3c2)c1=O)c1ccc(F)cc1F [Compound 335] = 0
CC(C)N(C(=O)n1oc(=O)n(C(C)C2CC2)c1=O)c1ccc(F)cc1 (stereo not drawn) [Compound 404] = 2
CC(C)Cn1c(=O)on(C(=O)N(c2ccc(Cl)cc2)C(C)C)c1=O [Compound 417] = 0

Item CC(C)N(C(=O)n1oc(=O)n(C(C)CCl)c1=O)c1ccc(F)cc1F (stereo not drawn) [Compound 408] has what recorded Plant response rating, B. signalgrass? 0

Item CC(C)N(C(=O)n1oc(=O)n(C2CCC2)c1=O)c1ccc(Cl)cc1 [Compound 349] has what recorded Plant response rating, B. signalgrass? 0

Item CC(C)N(C(=O)n1oc(=O)n(C(C)CCl)c1=O)c1ccc(F)cc1 (stereo not drawn) [Compound 367] has what recorded Plant response rating, B. signalgrass? 0

---

Each entry below carries its reported Sugarbeets plant response rating.
Test system: sugar beet
Assay: Test B pre/postemergence sugar beet
Format: in vivo, Beta vulgaris
Details: Preemergence, Rate 62 g/ha; scale of 0 to 10 where 0 is no effect and 10 is complete control
Experimental: […] At the same time, these crop and weed species were also treated with postemergence applications of test chemicals formulated in the same manner. […] Treated plants and controls were maintained in a greenhouse for twelve to sixteen days, after which all species were compared to controls and visually evaluated. […]
Just the number.

Cc1ccccc1-n1c(=O)on(C(=O)N(c2ccc(N(C)C)cc2)C(C)C)c1=O = 0
CC(C)N(C(=O)n1oc(=O)n(CC(=O)C2CCC2)c1=O)c1ccccc1 = 0
CC(C)N(C(=O)n1oc(=O)n(CCC(=O)N(C)C)c1=O)c1ccc(Cl)cc1 = 4

Proceed to the following item.
Item "Cc1nc(C)c(Cn2c(=O)on(C(=O)N(c3ccc(Cl)cc3)C(C)C)c2=O)s1" has what recorded Sugarbeets plant response rating? 0
